target: T1, monomeric human CSF1R ectodomain protein (human, UniProt P07333 20-517); assay: SPR Biacore, IgG captured, monomeric CSF1R analyte
T1 construct: also called biotinylated monomeric human CSF1R
# key: entry, value: koff
readoutKind: koff (s⁻¹)

binder | readoutKind | value
MH4 (antibody, V domains shown, Designer clone, human IgG4(S228P)/Ckappa IgG) VH: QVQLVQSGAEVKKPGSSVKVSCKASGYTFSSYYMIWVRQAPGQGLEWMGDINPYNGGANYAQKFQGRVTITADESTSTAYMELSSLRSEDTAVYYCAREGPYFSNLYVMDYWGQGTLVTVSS VL: EIVLTQSPATLSLSPGERATLSCRASQSVSYQGENYLAWYQQKPGQAPRLLIYDASNRATGIPARFSGSGSGTDFTLTISSLEPEDFAVYYCQLSNQDLLTFGGGTKVEIK | koff | 0.0024
26B07 (antibody, human IgG4, V domains shown, Library-derived clone, tested as human IgG4(S228P)/Ckappa IgG; framework residue limits counted on the grafts) VH: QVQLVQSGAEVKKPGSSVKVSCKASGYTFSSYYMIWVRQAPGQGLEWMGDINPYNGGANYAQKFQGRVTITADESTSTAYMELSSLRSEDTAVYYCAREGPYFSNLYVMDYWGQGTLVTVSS VL: EIVLTQSPATLSLSPGERATLSCRASQSVEYQGDNYLNWYQQKPGQAPRLLIYAASNRATGIPARFSGSGSGTDFTLTISSLEPEDFAVYYCQLSNEDLLTFGGGTKVEIK | koff | 0.00042
murine anti-CSF1R antibody 0301 (mu0301), v-domains in human IgG4(S228P) format (antibody, V domains shown) VH: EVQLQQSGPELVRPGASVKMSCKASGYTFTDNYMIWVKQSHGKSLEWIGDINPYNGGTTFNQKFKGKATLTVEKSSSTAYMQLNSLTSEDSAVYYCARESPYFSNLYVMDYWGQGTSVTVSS VL: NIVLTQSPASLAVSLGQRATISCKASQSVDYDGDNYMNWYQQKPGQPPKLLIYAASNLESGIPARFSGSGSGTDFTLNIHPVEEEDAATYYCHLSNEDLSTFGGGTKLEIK | koff | 6.9e-05
29H09 (antibody, human IgG4, V domains shown, Library-derived clone, tested as human IgG4(S228P)/Ckappa IgG; framework residue limits counted on the grafts) VH: QVQLVQSGAEVKKPGSSVKVSCKASGYTFTSYYMIWVRQAPGQGLEWMGDINPYNGGANYAQKFQGRVTITADESTSTAYMELSSLRSEDTAVYYCAREGPYFSNLYVMDYWGQGTLVTVSS VL: EIVLTQSPATLSLSPGERATLSCRASQSVSYEGENYLNWYQQKPGQAPRLLIYAASNRATGIPARFSGSGSGTDFTLTISSLEPEDFAVYYCQLSNEDLLTFGGGTKVEIK | koff | 0.00034
29D10 (antibody, human IgG4, V domains shown, Library-derived clone, tested as human IgG4(S228P)/Ckappa IgG; framework residue limits counted on the grafts) VH: QVQLVQSGAEVKKPGSSVKVSCKASGYTFTSYYMIWVRQAPGQGLEWMGDINPYNGGANFAQKFQGRVTITADESTSTAYMELSSLRSEDTAVYYCAREGPYFSNLYVMDYWGQGTLVTVSS VL: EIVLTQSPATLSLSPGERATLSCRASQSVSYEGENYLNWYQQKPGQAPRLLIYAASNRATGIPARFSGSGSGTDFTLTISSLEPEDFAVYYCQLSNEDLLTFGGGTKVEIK | koff | 0.00037
